Source of measurements: PubChem BioAssay AID504697

So I've got a bunch of compounds here, and I need their EC50 values.
- Measurement Description: compound autofluorescence in calcium buffer – biochemical, fluorescence, no RTF in test wells, artefact control for cardiac thin filament activator project, dose response (AID 504697);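 further: emission near 535 nm under roughly 485 nm excitation as for IANBD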
- Cond: compound-only fluorescence in RTF assay buffer with Ca2+ (no RTF in test wells), artifact counterscreen
Active and inactive are the calls of the source.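 How the source made its calls: active means EC50 at or below 10 µM; inactive means EC50 above 10 µM.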

Looking up COc1ccccc1C(=O)Oc1ccc2c(c1)O/C(=C\c1ccncc1)C2=O , I see its EC50 listed as 30.9 µM (inactive)

Form field EC50, entry c1ccc(Cn2c(-c3ccccc3)nc3nc4ccccc4nc32)cc1 : > 71.5 µM (inactive)

So for CC(=O)N1CCc2c(sc(NC(=O)C3CCCN3S(=O)(=O)c3cccs3)c2C(N)=O)C1 (stereo not given) , the logged EC50 turned out to be 42.6 µM (inactive)

Please fill in: EC50 reported for CNC(=S)N1N=C(c2ccc(Br)cc2)CC1c1ccc(N(C)C)cc1 (stereo not given) = 51.4 µM (inactive)

According to the records, this compound O=C(O)c1cc(NCc2ccc(F)cc2)ccc1N1CCOCC1 displays EC50 of > 71.5 µM (inactive)

Reported EC50 of Cc1ccc(/C=C2\Oc3c(ccc(O)c3CN3CCN(CCO)CC3)C2=O)cc1 : 34.2 µM (inactive)

Item: C[C@@H](C(=O)N1CCNCC1)n1cc(CCCN=C(N)N)nn1 | EC50: > 71.5 µM (inactive)

The reported value for CCC(/C=C1\Oc2ccc(OC)cc2N1C)=C\c1sc2ccccc2[n+]1CCCS(=O)(=O)[O-] in terms of EC50 is 2.92 µM (active)

// field: EC50; key: N=C1c2ccccc2CN1c1ccc(S(=O)(=O)N2CCCCC2)cc1 ; value = > 71.5 µM (inactive)

Given item CC(C)(C)C(=O)/C=c1\s/c(=C\c2ccc(-c3ccc([N+](=O)[O-])cc3)o2)c(=O)n1CC(=O)NC(N)=O , the value recorded as its EC50 is 1.72 µM (active)

* * *

Kindly state EC50 for each of the entries shown.
- Measurement Description: compound autofluorescence in calcium buffer – biochemical, fluorescence, no RTF in test wells, artefact control for cardiac thin filament activator project, dose response (AID 504697);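 further: emission near 535 nm under roughly 485 nm excitation as for IANBD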
- Cond: compound-only fluorescence in RTF assay buffer with Ca2+ (no RTF in test wells), artifact counterscreen
Active and inactive are the calls of the source.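 The calls were made as follows: active = EC50 at or below 10 µM; inactive = EC50 above 10 µM.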

Summary for this molecule, CC(/C=N/Nc1ccc2nncn2n1)=C\c1ccccc1 : EC50 is > 71.5 µM (inactive)

get_value(item= O=C(Nc1ccc(Cl)cn1)C1COc2ccccc2O1 (stereo unspecified) , readout=EC50) returns > 71.5 µM (inactive)

Entry O=C(N/N=C/c1sc2ccccc2c1O)c1ccccc1 ; EC50 = 17.9 µM (inactive)

For reference, reported EC50 for CCOc1cc(N2CCOCC2)c(OCC)cc1NC(=O)CCS(=O)(=O)c1ccc(Cl)cc1 stands at > 71.5 µM (inactive)

The value of EC50 measured for the molecule CCSC1=N/C(=C\C=C2/Oc3ccccc3N2CC)C(=O)S1 turned out to be 11.9 µM (inactive)

For record CCN(CC)c1ccc(/C=C2\SC(N)=NC2=O)cc1 the listed EC50 is 30.6 µM (inactive)

Consider COc1ccc(C(=O)Nc2cc(C(C)=O)c(/C=C/N(C)C)oc2=O)cc1 . Its measured EC50 is 29.5 µM (inactive)

response.value for CCN(CC)CCN1C(=O)c2cccc3cc(N)cc(c23)C1=O (field: EC50) = 49.2 µM (inactive)

Short answer for O=C(/C=C/c1cn(CC(O)CN2CCCCC2)c2ccccc12)c1cccs1 (stereo unspecified) : EC50 was 34.6 µM (inactive)

Lab note: CSc1ccc(C2C(C(=O)c3ccco3)=C(O)C(=O)N2c2nnc(SC)s2)cc1 (stereo unspecified) gave EC50 of 0.726 µM (active)

# EC50 (molecule: CN1c2ccccc2C(O)=C(C(=S)Nc2ccc(F)c(Cl)c2)S1(=O)=O ) is > 71.5 µM (inactive)
